Each entry below carries its recorded log2 fold change.
Target: ZW10 (UniProt O43264)
Sequence (O43264 whole entry, looked up): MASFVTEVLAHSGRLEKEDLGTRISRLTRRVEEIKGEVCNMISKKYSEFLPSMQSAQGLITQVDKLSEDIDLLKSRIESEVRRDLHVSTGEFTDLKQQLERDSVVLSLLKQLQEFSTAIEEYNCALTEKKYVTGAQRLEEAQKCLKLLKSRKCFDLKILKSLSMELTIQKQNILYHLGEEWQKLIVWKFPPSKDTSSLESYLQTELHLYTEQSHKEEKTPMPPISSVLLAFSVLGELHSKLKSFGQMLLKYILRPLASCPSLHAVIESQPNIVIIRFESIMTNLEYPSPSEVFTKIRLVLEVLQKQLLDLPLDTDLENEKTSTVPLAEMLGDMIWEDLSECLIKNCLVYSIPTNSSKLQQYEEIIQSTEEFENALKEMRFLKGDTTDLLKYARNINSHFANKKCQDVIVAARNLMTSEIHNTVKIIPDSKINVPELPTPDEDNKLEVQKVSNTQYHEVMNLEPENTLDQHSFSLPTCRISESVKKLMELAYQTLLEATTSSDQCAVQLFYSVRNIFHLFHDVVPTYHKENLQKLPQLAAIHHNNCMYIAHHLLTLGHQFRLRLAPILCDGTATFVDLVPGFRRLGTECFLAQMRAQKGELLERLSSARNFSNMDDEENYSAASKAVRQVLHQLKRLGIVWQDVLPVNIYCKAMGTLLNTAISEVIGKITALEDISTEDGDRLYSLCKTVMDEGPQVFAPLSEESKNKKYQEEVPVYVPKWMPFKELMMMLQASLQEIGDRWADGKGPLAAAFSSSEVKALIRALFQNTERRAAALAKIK
Assay: log2 fold change, soluble protein after heating vs DMSO (PISA); higher = thermal stabilisation; K562 cells, 10 uM, 30 min; active = over 0.2 and 3.5 SD of the protein, either way, in both replicates (recomputed)
About 7,900 targets were measured; listed, in parts, are those with a hit and a random draw of the rest. About 0.6% of all pairs of compound and target were hits.
# answer = number (no unit)

// known answers, use as guide
compound | log2 fold change
c1cn2cc(-c3ccc4cn[nH]c4c3)nc(Nc3ccc(N4CCOCC4)cc3)c2n1 | 0.063
COc1ccc(Cn2ccc3ccc(C(=O)NO)cc32)cc1 | -0.004
CC(=O)c1cnc2ccc(-c3cc(Cl)c(O)c(Cl)c3)nc2c1N[C@H]1CC[C@H](CN(C)C)CC1 | 0.011
NC(=O)c1cnc(N[C@@H]2CCCC[C@@H]2N)nc1Nc1cccc(-n2nccn2)c1 | -0.027
CCCCN(Cc1ccc(C(=O)NO)cc1)C(=O)Nc1ccccc1 | 0.093
C/C(=N\NC(=O)c1cccc(S(=O)(=O)N2CCOCC2)c1)c1cc(Cl)ccc1O | 0.075
Cc1ccc(C(=O)N(CCCN)[C@@H](c2nc3cc(Cl)ccc3c(=O)n2Cc2ccccc2)C(C)C)cc1 | -0.179
Cc1cc(Nc2cc(CN3CCOCC3)c3nc(C)c(Cc4ccc(Cl)cc4F)n3n2)n[nH]1 | -0.108

log2 fold change reported for this compound `CNCc1ccc(-c2[nH]c3cc(F)cc4c3c2CCNC4=O)cc1` : 0.128

log2 fold change reported for this compound `Cc1nc(Nc2n[nH]c3c2CN(C(=O)N[C@H](CN(C)C)c2ccccc2)C3(C)C)c2sccc2n1` : -0.11

log2 fold change reported for this compound `CNc1nc(-c2ccc3c(N)n[nH]c3c2)cc(N2C[C@@H](C(=O)NC3CCCCC3)CC[C@H]2C)n1` : 0.009

log2 fold change reported for this compound `CN1CCC(CNc2ccc3ncc(-c4cccc(OC(F)(F)F)c4)n3n2)CC1` : -0.108

log2 fold change reported for this compound `CN1CC[C@H](c2c(O)cc(O)c3c(=O)cc(-c4ccccc4Cl)oc23)[C@H](O)C1` : -0.02

log2 fold change reported for this compound CC1=C(C(=O)Nc2cc3cn[nH]c3cc2F)C(c2ccc(C(F)(F)F)cc2)CC(=O)N1 (centres undefined) : -0.033

log2 fold change reported for this compound `COc1cc(Nc2ncc3c(n2)-c2ccc(Cl)cc2C(c2c(F)cccc2OC)=NC3)ccc1C(=O)O` : 0.031

log2 fold change reported for this compound `CCn1c(C(=O)N(C2CC2)C2CC2)cc2c3c(ncn3C)c(Nc3cc(C)n(C)n3)nc21` : -0.06

log2 fold change reported for this compound `COc1cccc2cc(-c3nc([C@H]4CC[C@H](C(=O)O)CC4)n4ncnc(N)c34)[nH]c12` : -0.051

log2 fold change reported for this compound `FC(F)(F)c1ccc(/C=C/c2nc(COc3ccc(CCCCn4ccnn4)cc3)co2)cc1` : 0.028
